Examples of molecules with documented Increase in latent time (prolongation of latency, tail pinch) follow.
- System: streptozotocin (STZ)-induced diabetic mice
- assay-protocol: Analgesic action on diabetic neuropathy in streptozotocin-induced diabetic mice (tail pinch test)
- Assay type: in vivo
- measurement-conditions: orally 30 mg/kg, 45 minutes prior to measurement, Day 15 after STZ injection, ICR mice
measured-quantity: Increase in latent time (prolongation of latency, tail pinch) (s)

INSERT INTO measurements (given_smiles, study_system, result) VALUES
  ('CC(C)c1ccc(/C=C/C2CCN(C(=O)CN3CCOCC3)CC2)cc1', 'streptozotocin (STZ)-induced diabetic mice', 2.3),
  ('O=C(CN1CCOCC1)N1CCC(/C=C/c2ccc(Cl)cc2)CC1', 'streptozotocin (STZ)-induced diabetic mice', 3.4),
  ('O=C(CNC1CCCCC1)N1CCC(/C=C/c2ccc(Cl)cc2)CC1', 'streptozotocin (STZ)-induced diabetic mice', 3.2),
  ('CN(CC(=O)N1CCC(/C=C/c2ccc(Cl)cc2)CC1)C1CCCCC1', 'streptozotocin (STZ)-induced diabetic mice', 2.4),
  ('Cc1ccccc1/C=C/C1CCN(C(=O)CN2CCOCC2)CC1', 'streptozotocin (STZ)-induced diabetic mice', 2.3);
